Hey, just so you know, these numbers are from patent US9994546B2.

Exercise: for every item that follows, state its recorded IC50.

Incoming: Write IC50 of N#CCC1(N2CCC(N[C@@H]3C[C@H]3c3ccccc3)CC2)CN(C(=O)[C@H]2CCCO2)C1 ; system used: LSD-1 enzyme (Homo sapiens (Human), UniProt O60341)
Outgoing: ≤ 100 nM

Incoming: Using LSD-1 enzyme (Homo sapiens (Human), UniProt O60341) as the test system, report measured IC50 of Cn1cc(N2CC(CC#N)(N3CCC(N[C@@H]4C[C@H]4c4ccccc4)CC3)C2)cn1 .
Outgoing: ≤ 100 nM

Incoming: State recorded IC50 with LSD-1 enzyme (Homo sapiens (Human), UniProt O60341), entry N#CCC1(N2CCC(CN[C@@H]3C[C@H]3c3ccccc3)CC2)CN(C(=O)c2cccc(F)c2)C1 (relative stereo) , no comment.
Outgoing: ≤ 100 nM

Incoming: Report value: IC50, system: LSD-1 enzyme (Homo sapiens (Human), UniProt O60341), compound: CC(C)NC(=O)c1cc(F)c(N2CC(CC#N)(N3CCC(CN[C@@H]4C[C@H]4c4ccccc4)CC3)C2)cc1F (relative stereo)
Outgoing: ≤ 100 nM

Incoming: Send back LSD-1 enzyme (Homo sapiens (Human), UniProt O60341) IC50 of CCS(=O)(=O)N1CC(CC#N)(N2CCC(CN[C@@H]3C[C@H]3c3ccccc3)CC2)C1 (relative stereo) only.
Outgoing: 100 to 500 nM

Incoming: Enter recorded IC50 with LSD-1 enzyme (Homo sapiens (Human), UniProt O60341) for N#CCC1(N2CCC(N[C@@H]3C[C@H]3c3ccccc3)CC2)CNC1 (relative stereo) [Example 3] here.
Outgoing: ≤ 100 nM

Incoming: State IC50 on LSD-1 enzyme (Homo sapiens (Human), UniProt O60341). Entry: CCOC(=O)N1CCC(CC#N)(N2CC(CN[C@@H]3C[C@H]3c3ccccc3)C2)CC1 (relative stereo)
Outgoing: ≤ 100 nM
